- TEST NAME: binders of probe aHhip on microarray, primary screen, stem cell growth factor project, biochemical, small-molecule microarray, fluorescence 635/667 (AID 1087);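 also: score merges spot fluorescence at 667nm with spot signal to noise ratio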
- ASSAY CONDITIONS: higher = more signal
Use -0.07 as the dividing line for composite z-score, with the line itself on the true side and lower values as false.

[ask] Tell me whether composite z-score is at least -0.07 here: CC(C)=CCCC(C)=CCON=C1[C@H]2CCn3c(=O)n(C)c(=O)n3[C@H]2[C@H](O)[C@@H]2O[C@H]12
[reply] true

[ask] Check this molecule for composite z-score at or above -0.07: Cc1ccc(F)cc1S(=O)(=O)N[C@@H]1CCN(Cc2ccc(CC(C)C)cc2)C1
[reply] false

[ask] Textbook exercise: given the entry COCCOC(=O)N1C(=O)[C@@]2(c3ccccc31)[C@H](C(N)=O)[C@H]1C(=O)O[C@H](c3ccccc3)[C@H](c3ccccc3)N1[C@@H]2c1ccccc1OCCO , state whether its composite z-score is greater than or equal to -0.07.
[reply] true

[ask] Does composite z-score meet or surpass -0.07 for CCCCCCc1nc(CCCc2cc3c(c(CCCCCC)n2)[Si](C(C)C)(C(C)C)O[C@H]3c2ccccc2)cc2c1[Si](C(C)C)(C(C)C)O[C@H]2c1ccccc1 ?
[reply] false

[ask] Is it the case that COCCNC(=O)OCC1CCCC2(CC(OC(=O)NCCc3ccc(F)cc3)CC(CCC(=O)N[C@@H](C)C(=O)OC)O2)O1 (some centres not stated) has composite z-score reaching or exceeding -0.07?
[reply] false

[ask] Given the entry C=C(COC)/C(=C/C[C@H](OC(=O)c1ccncc1)c1ccc(CO)o1)c1cc(C(=O)OC)ccc1OC , answer whether its composite z-score meets or surpasses -0.07.
[reply] false

[ask] Dear colleague, could you confirm whether CCc1cc2c(nc1CC)CCN(CCC(C)=NOC[C@@H](O)[C@H]1O[C@@H]3OC(C)(C)O[C@@H]3[C@H]1O)C2 has composite z-score at or above -0.07?
[reply] true

----------
- EXPERIMENTAL SYSTEM: NADPH oxidase 2 (Homo sapiens) (UniProt P04839)
- Sequence (P04839 whole entry, looked up): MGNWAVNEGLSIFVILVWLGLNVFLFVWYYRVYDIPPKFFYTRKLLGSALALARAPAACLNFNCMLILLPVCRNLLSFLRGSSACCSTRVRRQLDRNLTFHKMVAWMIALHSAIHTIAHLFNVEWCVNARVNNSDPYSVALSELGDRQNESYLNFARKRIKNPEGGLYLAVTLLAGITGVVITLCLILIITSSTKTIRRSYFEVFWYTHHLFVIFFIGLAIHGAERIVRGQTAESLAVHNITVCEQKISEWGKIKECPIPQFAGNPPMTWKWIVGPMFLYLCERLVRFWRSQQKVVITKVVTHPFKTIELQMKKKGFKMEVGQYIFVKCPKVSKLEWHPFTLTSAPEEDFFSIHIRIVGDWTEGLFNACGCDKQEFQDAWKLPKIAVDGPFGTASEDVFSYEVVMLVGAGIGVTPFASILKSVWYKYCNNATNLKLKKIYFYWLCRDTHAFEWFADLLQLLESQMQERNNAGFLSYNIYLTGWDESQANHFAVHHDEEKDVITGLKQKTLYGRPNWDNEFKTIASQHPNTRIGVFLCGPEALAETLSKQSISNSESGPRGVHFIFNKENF
- TEST NAME: NOX2-dependent H2O2 signal modulators, primary screen, NOX inhibitor project, cell-based, HEK293-NOX2, PMA-stimulated, Amplex Red fluorescence (AID 1159); also: test concentration not given here
- ASSAY CONDITIONS: 45 min, higher = more signal, called active from +8 up or from −8 down
READOUT TYPE: z-score
Just the number, please, no unit after it.

[ask] Please report the recorded z-score for COC(=O)C1=C(C)[C@@H](O)[C@@H](C)[C@H](c2c(OC)c(OC)c(C)c(OC)c2OC)O1 .
[reply] -0.101

[ask] Fill blank: measured z-score of the compound CCc1cc2c(nc1CC)CCN(CCC(C)=NOC[C@@H](O)[C@H]1O[C@@H]3OC(C)(C)O[C@@H]3[C@H]1O)C2 is ____.
[reply] 0.336

[ask] Please look up its z-score: CCOC(=O)CCN1C(=O)[C@H]2[C@H]3[C@H](O)C=CC(=O)[C@@H]3CC[C@H]2C1=O
[reply] 1.22

[ask] Bench note: what z-score did C[C@H](c1ccccc1)N1C(=O)[C@H]2[C@H]3[C@H](O)[C@H](O)CC(=O)[C@@H]3CC[C@H]2C1=O show?
[reply] 0.292

[ask] State the recorded z-score for this entry: CC(C)C[C@@H]1NC(=O)[C@H]2C[C@@H](C(=O)NCCCCCCN(C)C)[C@@H](c3cccc(OCCO)c3)N2C1=O
[reply] 1.77

[ask] What does the data say about its z-score? Entry: O=C1O[C@@H](c2ccccc2)[C@@H](c2ccccc2)N2[C@@H](c3ccccc3OCCO)[C@]3(C(=O)Nc4ccc(C#CCCO)cc43)[C@@H](C(=O)O)[C@H]12
[reply] 0.559

[ask] Name the recorded z-score for COC(=O)CC=C[C@@H](C)[C@@H](C=NO[C@H](C)c1cn([C@@H]2COC[C@H]2O)nn1)OC .
[reply] -0.0191

[ask] Look up z-score for this compound: O=C1[C@H]2[C@H]3[C@H](O)[C@H](O)CC(=NOC[C@@H](O)COCc4ccco4)[C@@H]3CC[C@H]2C(=O)N1c1ccc(F)cc1F
[reply] -1.37

[ask] Given C=CCC(OC(C)=O)[C@@H]1[C@@H](N(Cc2cc3ccccc3o2)C(=O)Cc2ccc(F)cc2)c2cc(OCCCO)ccc2N1C(=O)Cc1ccc(OC)cc1 (stereo not given in full) , state its recorded z-score.
[reply] 0.2

[ask] z-score for CC(=O)OC[C@H]1O[C@H](CCON=C(C)CCN2CCc3nc(-c4ccccc4)c(-c4ccccc4)cc3C2)C=C[C@@H]1OC(C)=O ?
[reply] -2.87

[ask] // lookup z-score for C/C=C\[C@@H](NCc1ccccc1Br)[C@@H](O)Cc1ccccc1
[reply] -0.239

[ask] Need z-score, item COc1cccc([C@@H]2Oc3ccc(Br)cc3C(=O)[C@H]2O)c1
[reply] 0.658

[ask] z-score lookup needed for COC(=O)[C@@H]1CC[C@H](C)[C@@H](c2ccc(C)cc2)N1C(=O)c1ccc(C=NOC[C@@H](O)COCc2ccco2)cc1 , thanks.
[reply] -0.0479

[ask] I would be grateful if you could share the reported z-score for CO[C@H]1COC(=O)CC=C[C@H](C)[C@@H](NS(=O)(=O)c2ccc(C)cc2)COC(=O)CC=C[C@@H]1C .
[reply] 0.0288

[ask] # query: z-score of entry COc1ccc(OC[C@H]2Cc3c(-c4ccccc4)nc4c(c3CO2)CN(CCOc2ccccc2)CC4)cc1
[reply] -0.0596

----------
- EXPERIMENTAL SYSTEM: Epidermal growth factor receptor (Homo sapiens)
- TEST NAME: EGFR binders on small-molecule microarrays, primary screen, biochemical, small-molecule microarray, 635 nm fluorescence (AID 1104);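 also: score merges 667 nm emission intensity with spot signal to noise over triplicate slides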
- ASSAY CONDITIONS: EGFR binding, higher = more signal
READOUT TYPE: composite z-score
Please give the numeric answer without any surrounding text.

[ask] // map COC(=O)[C@H]1COC(c2ccc(OCCCO)cc2)=N1 to recorded composite z-score (system: Epidermal growth factor receptor (Homo sapiens))
[reply] -0.2

[ask] Request body: readout composite z-score, system Epidermal growth factor receptor (Homo sapiens), query C[C@H]1Cc2c(-c3ccccc3)nc3c(c2CO1)CN(CCOc1ccccc1)CC3 . Return the value.
[reply] 0.65

[ask] Recorded composite z-score for CCOc1ccc(N2C(=O)/C(=C/C=C/c3ccccc3OC)S(=O)(=O)C2c2cccc([N+](=O)[O-])c2)cc1 (stereo not drawn) with Epidermal growth factor receptor (Homo sapiens), please?
[reply] 0.549

[ask] // lookup composite z-score | system=Epidermal growth factor receptor (Homo sapiens) | key= Cc1cc2c(c(=O)o1)[C@H](O)[C@H]1O[C@H]1C2=O
[reply] 0.0205

[ask] # returns recorded composite z-score (system: Epidermal growth factor receptor (Homo sapiens)) for CC(C)CON=C1[C@H]2CCn3c(=O)n(-c4ccccc4)c(=O)n3[C@H]2[C@H](O)[C@@H]2O[C@H]12
[reply] 0.481

[ask] // lookup composite z-score | system=Epidermal growth factor receptor (Homo sapiens) | key= O=C(CS)NCCCCCNC(=O)[C@@H]1C[C@@H]2C(=O)N[C@@H](Cc3ccccc3)C(=O)N2[C@@H]1c1ccc(O)cc1
[reply] -0.146

[ask] Hi! What's the reported composite z-score for COC(=O)[C@@H]1CC[C@H](C)[C@@H](c2ccc(C)cc2)N1C(=O)c1ccc(C=NOC(C)CN2CCCCc3nc(C)c(C)cc32)cc1 (stereo partly drawn) on Epidermal growth factor receptor (Homo sapiens)?
[reply] 0.598

[ask] Observed composite z-score on Epidermal growth factor receptor (Homo sapiens) for CCCC[C@@H](O)C1=C(C)C[C@H]2C(=O)N(Cc3ccccc3)C(=O)[C@H]2[C@H]1CO , please.
[reply] 0.464

----------
- EXPERIMENTAL SYSTEM: Torsin-1A (Homo sapiens) (UniProt O14656)
- Sequence (O14656 whole entry, looked up): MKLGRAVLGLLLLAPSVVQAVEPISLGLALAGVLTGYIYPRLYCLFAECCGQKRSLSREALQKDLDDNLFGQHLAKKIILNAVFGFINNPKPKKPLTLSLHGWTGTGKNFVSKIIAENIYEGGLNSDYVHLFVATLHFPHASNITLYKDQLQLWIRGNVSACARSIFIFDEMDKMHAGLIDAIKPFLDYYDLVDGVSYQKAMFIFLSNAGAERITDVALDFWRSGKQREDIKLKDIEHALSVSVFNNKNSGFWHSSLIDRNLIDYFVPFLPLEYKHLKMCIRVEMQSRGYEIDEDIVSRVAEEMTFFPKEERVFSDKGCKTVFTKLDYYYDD
- TEST NAME: torsin A binders from cell lysate, primary screen, small-molecule microarray, wild-type, 635/667 nm (AID 1149)
- ASSAY CONDITIONS: COS7 hTOR1A-WT lysate, 635 nm fluorescence, higher = more signal
READOUT TYPE: composite z-score
Please reply with the value in numeric form only.

[ask] Data request, read-out composite z-score, for COc1ccc(O[C@H]2C=C[C@@H](c3ccccc3)O[C@@H]2COC(=O)N2CCCCC2)cc1
[reply] 0.205

[ask] Consider the compound CC(=O)OC[C@H]1O[C@@H](ON=C[C@@H](C)[C@H](OCc2ccccc2)C(C)C)[C@H](OC(C)=O)[C@@H](OC(C)=O)[C@@H]1OC(C)=O and give its measured composite z-score.
[reply] 1.68

[ask] I'd like to know its composite z-score. The compound in question is CO[C@@H]1COC(=O)CC=C[C@@H](C)COC(=O)[C@H](COCc2ccccc2)NC(=O)CC=C[C@H]1C
[reply] 2.33

[ask] Which composite z-score value is on record for CCOC(=O)NN=C1C[C@@H](O)[C@@H](O)[C@@H]2[C@@H]3C(=O)N(C(C)(C)C)C(=O)[C@@H]3CC[C@@H]12 ?
[reply] 0.527

[ask] I have this compound here, CCOC(=O)CCN1C(=O)[C@H]2[C@H]3[C@H](O)[C@H](O)CC(=NOC[C@@H](O)COCc4ccco4)[C@@H]3CC[C@H]2C1=O , and I need its recorded composite z-score.
[reply] 0.584

[ask] Entry under review: COC(=O)[C@@]1(Cc2ccc(OC)cc2)[C@H]2c3cc(C(=O)N4CCCC4)n(Cc4cc(F)c(F)c(F)c4)c3C[C@H]2CN1C(=O)c1ccccc1 . Reported composite z-score?
[reply] 0.188

[ask] Give its composite z-score value. Item: COC(=O)[C@@]1(Cc2ccc(F)cc2)[C@@H]2C(=CC(=O)[C@H]2CC(=O)C(=O)N(C)C)CN1C(=O)c1ccccc1
[reply] -0.441

[ask] Form field: reported composite z-score of CO[C@@H]1COC(=O)[C@H](C)NC(=O)[C@@H](C)COC(=O)CCC[C@H]1C
[reply] 0.738

[ask] Could you tell me which composite z-score is on file for CCCCC(=C=CC[C@H](O)c1ccccc1OCCO)C[C@H](O)COCc1ccccc1 ?
[reply] 1.08

[ask] Record request: composite z-score value, item COc1ccc(COC(=O)NN=C2C[C@@H](O)[C@@H](O)[C@@H]3[C@@H]4C(=O)N(Cc5ccc6c(c5)OCO6)C(=O)[C@@H]4CC[C@@H]23)cc1
[reply] -1.15

[ask] Quick one: composite z-score of COC(=O)C1=CCC(c2cccc(Cl)c2)O1 (stereo not given) ?
[reply] 0.0026

[ask] Bench note: what composite z-score did O=C1[C@H]2[C@H]3[C@H](O)[C@H](O)CC(=NOC[C@@H](O)COCc4ccco4)[C@H]3CC[C@H]2C(=O)N1Cc1ccc2c(c1)OCO2 show?
[reply] 3.53

[ask] Can you share its composite z-score? I mean this compound: CN1C(=O)C2C(C1=O)C1C=C(CCCO)C2C(c2ccc(CN3CCCC3)cc2)N1C (stereo not given)
[reply] 0.33

[ask] composite z-score lookup needed for C#CCCCON=C1C[C@@H](O)[C@@H](O)[C@@H]2[C@@H]3C(=O)N(c4cccc(Oc5ccccc5)c4)C(=O)[C@@H]3CC[C@@H]12 , thanks.
[reply] -0.0313

[ask] # composite z-score lookup, item CC(CCN1CCc2nc(-c3ccccc3)c(-c3ccccc3)cc2C1)=NOC(C)CN1CCCCc2nc(C)c(C)cc21 (stereo not given)
[reply] 0.319

FYI, the data here is from PubChem BioAssay.
